# SYSTEM: UniProtKB P60953
# Sequence (P60953 whole entry, looked up, change not shown): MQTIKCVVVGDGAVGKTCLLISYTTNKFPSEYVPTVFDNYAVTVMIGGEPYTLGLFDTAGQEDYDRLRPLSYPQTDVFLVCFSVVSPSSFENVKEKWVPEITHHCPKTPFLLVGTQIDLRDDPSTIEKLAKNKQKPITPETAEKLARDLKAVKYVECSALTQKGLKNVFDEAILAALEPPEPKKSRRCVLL
# ASSAY METHOD TEXT: activated Cdc42 mutant GTP binding inhibitors, SAR follow-up, biochemical, pyrazoline analogs, multiplex bead flow cytometry, Ki (AID 2020)
# REPORTED CONDITIONS: bead-based flow cytometry, Bodipy-FL-GTP binding
The source made the active and inactive calls.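 Rule for the calls: active = EC50 at or below 30 µM together with a response span of at least a set limit; inactive = the rest.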
One label from this list, please: class 1 = active, class 0 = inactive

Ask: Any idea what this test logged for CN(C)c1ccc(C2CC(c3ccccc3)=NN2c2ccc([N+](=O)[O-])cc2)cc1 (stereo unspecified) ?
Reply: class 0

Ask: Any idea what this test logged for COc1ccc(C2CC(c3ccc(F)cc3)=NN2c2ccccc2)cc1OC (stereo unspecified) ?
Reply: class 0

Ask: Any idea what this test logged for COc1ccc(C2CC(c3cccc(C)c3)=NN2c2ccc(S(N)(=O)=O)cc2)cc1 (stereo unspecified) ?
Reply: class 1

Ask: Any idea what this test logged for COc1ccc(C2CC(c3ccc(F)cc3)=NN2c2cccc(F)c2)cc1OC (stereo unspecified) ?
Reply: class 0

Ask: Any idea what this test logged for NS(=O)(=O)c1ccc(N2N=C(c3ccccc3)CC2c2cccc(Br)c2)cc1 (stereo unspecified) ?
Reply: class 1

Ask: Any idea what this test logged for CN(C)c1ccc(C2CC(c3ccc(Cl)cc3)=NN2c2ccccc2)cc1 (stereo unspecified) ?
Reply: class 0

Ask: Any idea what this test logged for O=[N+]([O-])c1cccc(C2CC(c3ccccc3)=NN2c2ccccc2)c1 (stereo unspecified) ?
Reply: class 0

Ask: Any idea what this test logged for COc1ccc(C2CC(c3ccccc3Br)=NN2c2ccc(S(N)(=O)=O)cc2)cc1 (stereo unspecified) ?
Reply: class 0

Ask: Any idea what this test logged for O=S(=O)(O)c1ccc(N2N=C(c3ccccc3)CC2c2ccccc2)cc1 (stereo unspecified) ?
Reply: class 0

Ask: Any idea what this test logged for COc1ccc(C2CC(c3ccc(Cl)cc3)=NN2c2ccc(S(N)(=O)=O)cc2)cc1 (stereo unspecified) ?
Reply: class 1

Ask: Any idea what this test logged for COc1ccc(C2=NN(c3ccc(Cl)c(Cl)c3)C(c3ccc(OC)cc3)C2)cc1 (stereo unspecified) ?
Reply: class 0

Ask: Any idea what this test logged for Brc1ccc(N2N=C(c3ccccc3)CC2c2ccccc2)cc1 (stereo unspecified) ?
Reply: class 0

Ask: Any idea what this test logged for FC(F)(F)c1ccccc1C1CC(c2ccc(Br)cc2)=NN1c1ccccc1 (stereo unspecified) ?
Reply: class 0

Ask: Any idea what this test logged for "COc1ccc(-c2cc(-c3ccccc3)nn2-c2ccc(S(N)(=O)=O)cc2)cc1" ?
Reply: class 0

Ask: Any idea what this test logged for O=C(O)c1ccc(N2N=C(c3ccccc3)CC2c2ccccc2)cc1 (stereo unspecified) ?
Reply: class 0

Ask: Any idea what this test logged for O=S(=O)(c1ccc(N2N=C(c3ccccc3)CC2c2ccccc2)cc1)C(F)F (stereo unspecified) ?
Reply: class 0

Ask: Any idea what this test logged for COc1ccc(C2CC(c3ccccc3)=NN2c2ccc([N+](=O)[O-])cc2)cc1 (stereo unspecified) ?
Reply: class 0

Ask: Any idea what this test logged for COc1ccc(C2CC(c3ccccc3F)=NN2c2ccc(S(N)(=O)=O)cc2)cc1 (stereo unspecified) ?
Reply: class 1

Ask: Any idea what this test logged for COc1ccc(C2CC(c3cccnc3)=NN2c2ccc(S(N)(=O)=O)cc2)cc1 (stereo unspecified) ?
Reply: class 0

Ask: Any idea what this test logged for COc1ccc(C2=NN(c3ccccc3)C(c3ccc(Cl)cc3)C2)cc1 (stereo unspecified) ?
Reply: class 0

Ask: Any idea what this test logged for COc1ccc(C2CC(c3ccccc3)=NN2c2cccc(S(N)(=O)=O)c2)cc1 (stereo unspecified) ?
Reply: class 0
